- Test system: HeLa MKYP cells
- Protocol: Cell death measured by DAPI staining, with 1 μM FCCP/oligomycin or no toxin (no FO)
- Assay type: cell-based
- Cond: with 1 μM FO
- Method: EP-0035985, EP-0037821, EP-0038098, and EP-0038099 in the presence of 1 μM FCCP/oligomycin or with no toxin (no FO) for 6 hrs. H2O2 treatment was performed as a control for cell death as measured by DAPI staining. EP-0035985, EP-0038461, EP-0038463, and EP-0038503 in the presence of 1 μM FCCP/oligomycin or with no toxin (no FO) for 6.5 hrs. H2O2 treatment was performed as a control for cell death as measured by DAPI staining. […]
Overview of reported E103 max death with 1 μM FO across a group of compounds:
// return just the number, without any unit appended

Use these answered entries as a reference point.
compound="FC(F)(F)c1cc2c(N[C@H]3c4ccccc4CC[C@@H]3N3CC4(CCOCC4)C3)ncnc2[nH]1 (single isomer, unassigned)" system_tested="HeLa MKYP cells" assay_value=87.81
compound="Fc1ccc2c(c1)CC[C@H](N1CCOCC1)[C@H]2Nc1ncnc2[nH]c(C3CC3)cc12 (single isomer, unassigned)" system_tested="HeLa MKYP cells" assay_value=6.77

Q. # E103 max death with 1 μM FO lookup, item FC(F)(F)c1cc2c(N[C@@H]3c4ccccc4CC[C@H]3N3CCOCC3)ncnc2[nH]1 (racemic) [EP-0037821]
A. 62.82

----------
- Protocol: Mitotoxicity / Mitotox safety margin (therapeutic window)
- Assay type: cell-based
- Cond: mitotox or cytotox
Classify on Highest safe dose (μM) (mitotox or cytotox) using lower bin (below 5 µM), middle bin (5 µM to below 20 µM), upper bin (20 µM or more)

Worked cases, answers included:
compound="FC(F)(F)c1cc2c(N[C@@H]3c4ccccc4OC[C@H]3C3CCOCC3)ncnc2[nH]1 (single isomer, unassigned)" class_name="lower bin"
compound="C[C@@H]1CN([C@H]2COc3ccccc3[C@@H]2Nc2ncnc3[nH]c(C(F)(F)F)cc23)C[C@H](C)O1 (single isomer, unassigned)" class_name="middle bin"

Q. Could you tell me which band COC1CN([C@H]2COc3ccccc3[C@@H]2Nc2ncnc3[nH]c(C(F)(F)F)cc23)C1 [EP-0040697] belongs to?
A. middle bin

Q. Could you tell me which band "C[C@@H]1CN([C@@H]2COc3cc(F)ccc3[C@H]2Nc2ncnc3[nH]c(C(F)(F)F)cc23)C[C@H](C)O1" belongs to?
A. lower bin

Q. Could you tell me which band FC(F)(F)c1cc2c(NC3c4ccccc4OCC3N3C[C@@H]4COC[C@H]4C3)ncnc2[nH]1 (stereo partly drawn) belongs to?
A. upper bin

----------
- System: HeLa MKYP cells
- Protocol: Human mitophagy assay (HeLa mKeima assay, FACS)
- Assay type: cell-based
- Cond: 1 μM FCCP/oligomycin
Observed property: E102 max mitophagy, fold over DMSO (fold over DMSO)
Answer in fold over DMSO, number only, no unit symbol.

Use these answered entries as a reference point.
molecule="FC(F)(F)c1cc2c(N[C@H]3c4ccccc4CC[C@@H]3N3CCOCC3)ncnc2[nH]1 (single isomer, unassigned) [EP-0038098]" observed_property="E102 max mitophagy, fold over DMSO" assay_value=9.78
molecule="FC(F)(F)c1cc2c(N[C@@H]3c4ccccc4CC[C@H]3N3CCOCC3)ncnc2[nH]1 (racemic) [EP-0037821]" observed_property="E102 max mitophagy, fold over DMSO" assay_value=9.53
molecule="Fc1ccc2c(c1)CC[C@H](N1CCOCC1)[C@H]2Nc1ncnc2[nH]c(C3CC3)cc12 (single isomer, unassigned) [EP-0038521]" observed_property="E102 max mitophagy, fold over DMSO" assay_value=5.24

Q. # E102 max mitophagy, fold over DMSO lookup, item Fc1ccc2c(c1)CC[C@@H](N1CCOCC1)[C@@H]2Nc1ncnc2[nH]c(C(F)(F)F)cc12 (single isomer, unassigned) [EP-0038504]
A. 4.67

Q. # E102 max mitophagy, fold over DMSO lookup, item FC(F)(F)c1cc2c(N[C@H]3c4ccccc4CC[C@@H]3N3CC4(CCOCC4)C3)ncnc2[nH]1 (single isomer, unassigned) [EP-0038463]
A. 3.95

Q. # E102 max mitophagy, fold over DMSO lookup, item Fc1ccc2c(c1)CC[C@H](N1CCOCC1)[C@H]2Nc1ncnc2[nH]c(C(F)(F)F)cc12 (single isomer, unassigned) [EP-0038503]
A. 5.11
